tested on: UPEC strain CFT073; assay: Antimicrobial susceptibility assay, UPEC grown in MOPS-glycerol; type: cell-based, Escherichia coli; conditions: Escherichia coli; UPEC CFT073 grown in MOPS-glycerol, 24 h; ± standard error
Value kind: MIC (µM)

Consider the reported MIC for these compounds:
> print(dat)
                                   compound         test.target  value.kind  endpoint.result
1  CC(C)(CO)[C@@H](O)C(=O)NCCC(=O)NCc1cccnc1  UPEC strain CFT073         MIC             2000
2    CCCCCCCNC(=O)CCNC(=O)[C@H](O)C(C)(C)CO  UPEC strain CFT073         MIC               26
3      CCCCCC(=O)NCCNC(=O)[C@H](O)C(C)(C)CO  UPEC strain CFT073         MIC             12.5
4  CCCCCNC(=O)CNC(=O)[C@H](O)C(C)(C)CO [compound 6, N5-α-pantothenamide]  UPEC strain CFT073         MIC             6.25

P = CCCCCNC(=O)CCNC(=O)[C@H](O)C(C)(C)CO [compound 1, N-pentylpantothenamide, reference compound]
Q = CC(C)(CO)[C@@H](O)C(=O)NCCC(=O)NCc1ccccn1
Enquiry: Hi team, can someone confirm which has the larger MIC: P or Q ? Thanks. Response format: the label of the selected entry.
Return: Q
(Q: 68 µM, P: 2.44 µM)

====

system: UPEC strain CFT073; experiment: Antimicrobial susceptibility assay, UPEC grown in MOPS-glycerol; format: cell-based, Escherichia coli; conditions: Escherichia coli; UPEC CFT073 grown in MOPS-glycerol, 24 h; ± standard error
Value kind: MIC

Enquiry: Item CN(Cc1cccnc1)C(=O)CCNC(=O)[C@H](O)C(C)(C)CO with UPEC strain CFT073 - MIC?
Return: > 2000 µM

Enquiry: Notebook: pull reported MIC for UPEC strain CFT073, entry CC(NC(=O)CCNC(=O)[C@H](O)C(C)(C)CO)c1cccnc1 (stereo partly drawn)
Return: > 2000 µM

Enquiry: Entry CC(C)(CO)[C@@H](O)C(=O)NCCC(=O)NCc1ccncc1 , system UPEC strain CFT073: what MIC was measured?
Return: > 2000 µM
